assay: Cytotoxicity against LPS-stimulated mouse BMDM cells assessed as changes in cellular metabolism at 1 to 100 nM for 8 hrs by MTT assay; format: toxicity, cell-based; conditions: 0.1 µM, dose 1-100 nM

- sample smiles: "CC1=C(CCc2ccoc2)[C@@]2(C=O)CCCC(C)(C)[C@@H]2CC1"
  Activity: "Non-toxic"
- sample smiles: "CC1(C)CCC[C@@]23[C@H](O)O[C@@](C)(CC[C@@H]12)[C@@H]3CCc1ccoc1"
  Activity: "Non-toxic"
- sample smiles: "CC1=C(CCC2=CCOC2=O)[C@@]2(C=O)CCCC(C)(C)[C@@H]2CC1"
  Activity: "Non-toxic"
- sample smiles: "CC1(C)CCC[C@@]23[C@H](O)O[C@@](C)(CC[C@@H]12)[C@@H]3CCC1=CCN(CC(=O)O)C1=O"
  Activity: "Non-toxic"
- sample smiles: "CO[C@@H]1O[C@@]2(C)CC[C@H]3C(C)(C)CCC[C@@]13[C@H]2CCC1=CCOC1=O"
  Activity: "Non-toxic"
- sample smiles: "CC1=CC[C@H]2C(C)(C)CCC[C@]2(C=O)[C@H]1CCc1ccoc1"
  Activity: "Non-toxic"
- sample smiles: "CC1=C(CCc2cc(Br)oc2Br)[C@@]2(C=O)CCCC(C)(C)[C@@H]2CC1"
  Activity: "Non-toxic"

----------
tested on: RAW264.7; test: Antiinflammatory activity against LPS-stimulated mouse RAW264.7 cells assessed as reduction in TNF production at 1 to 1000 nM preincubated with compound for 8 hrs followed by LPS-induction and measured after 48 hrs by ELISA based assay; format: functional, cell-based; details: dose 1-1000 nM, time 56.0 hrs
Calls of active or inactive are those of the source. The rule behind the calls is not given here.
Labels: active, inactive

- sample smiles: "CC(=O)O[C@@H]1O[C@@]2(C)CC[C@H]3C(C)(C)CCC[C@@]13[C@H]2CCc1ccoc1"
  label: "active"
- sample smiles: "CO[C@@H]1O[C@@]2(C)CC[C@H]3C(C)(C)CCC[C@@]13[C@H]2CCC1=CCOC1=O"
  label: "inactive"
- sample smiles: "CC1(C)CCC[C@@]23[C@H](O)O[C@@](C)(CC[C@@H]12)[C@@H]3CCC1=CCN(CC(=O)O)C1=O"
  label: "active"
